system_under_test: human Pim-1 (Homo sapiens (Human))
assay_comment: biochemical
Type: biochemical
condition_info: Ki converted from IC50; purified human Pim-1, Pim2tide substrate, ADP-Glo; read-out: hPim1 Ki
Method: The human Pim-1 inhibitory activity of the test compounds was evaluated as follows. (1) Purification of Human Pim-1 […] The protein concentration of the human Pim-1 purified fraction was measured with Pierce 660 nm Protein Assay Reagent (Thermo Fisher Scientific, model number 22660). […] The His-Tag-added human Pim-1 was detected by Western blotting using a mouse anti-His monoclonal antibody (WAKO, model number 011-23091). […]
property_measured: pKi
For clarity, pKi is expressed as the negative log10 of concentration in mol/L.

Request: What pKi appears in the records for this compound with human Pim-1 (Homo sapiens (Human))? O=C1NCCN(CC(F)(F)C2CC(O)(C(F)(F)F)CCO2)c2c1oc1ccc(C(F)(F)F)cc21 (stereo not shown)
Response: 10.00

Request: Request - read-out pKi | tested on human Pim-1 (Homo sapiens (Human)) | compound O=C1NCCN(CC(F)(F)C2CCC(O)(CO)CC2)c2c1oc1ccc(C(F)(F)F)cc21 (stereo not shown)
Response: 11.22

Request: Record COC(C1CC(O)C1)C1(CN2CCNC(=O)c3oc4ccc(C(F)(F)F)cc4c32)CC1 (stereo not shown) : what is its pKi with human Pim-1 (Homo sapiens (Human))?
Response: 9.63

Request: Item: COC[C@]1(OC)CC[C@@H](CCN2CCN(C)C(=O)c3oc4ccc(C(F)(F)F)cc4c32)CC1 Test system: human Pim-1 (Homo sapiens (Human)) Read-out: pKi Value: ?
Response: 7.88

Request: Tell me reported pKi for COC(C1CC(O)(CO)C1)C1(CN2CCNC(=O)c3oc4ccc(C(F)(F)F)cc4c32)CC1 (racemic) [Example 23] , tested with human Pim-1 (Homo sapiens (Human)).
Response: 9.09

Request: Checklist item: pKi tested on human Pim-1 (Homo sapiens (Human)), entry O=C1NCCN(CC(F)(F)C2CC(O)(C(F)F)CCO2)c2c1oc1ccc(C(F)(F)F)cc21 (single isomer, unassigned) [Example 53] , value?
Response: 10.04

Request: // lookup pKi | system=human Pim-1 (Homo sapiens (Human)) | key= O=C1NCCN(CCC23CC(CO)(C2)C3)c2c1oc1ccc(C(F)(F)F)cc21
Response: 9.14

Request: Can you look up pKi on human Pim-1 (Homo sapiens (Human)) for O=C1NC2(CC2)CN(CC(F)(F)[C@H]2CO[C@H](CO)CO2)c2c1oc1ccc(C(F)(F)F)cc21 ?
Response: 10.71

Request: Query pKi on human Pim-1 (Homo sapiens (Human)) for CC1(O)CCOC(C(F)(F)CN2CCNC(=O)c3oc4ccc(C(F)(F)F)cc4c32)C1 (stereo not shown) [Example 66]
Response: 10.55

Request: // lookup pKi | system=human Pim-1 (Homo sapiens (Human)) | key= O=C1NCCN(CCC2CC(O)CCC2(F)F)c2c1oc1ccc(C(F)(F)F)cc21 (stereo not shown)
Response: 9.72

Request: Form field - read-out: pKi; system: human Pim-1 (Homo sapiens (Human)); submitted item: CC1(O)CCOC(C(F)(F)CN2CCNC(=O)c3oc4ccc(C(F)(F)F)cc4c32)C1 (stereo not shown) [Example 67]
Response: 9.62

Request: What value of pKi on human Pim-1 (Homo sapiens (Human)) does O=C1NCCN(CC[C@H]2CC[C@@H](O)CC2)c2c1oc1ccc(C(F)(F)F)cc21 have?
Response: 9.12

Request: Fill in the recorded pKi for this compound, with human Pim-1 (Homo sapiens (Human)) as test system: CC1COCC(CCN2CCNC(=O)c3oc4ccc(C(F)(F)F)cc4c32)O1 (racemic) [Example 114]
Response: 9.15

Request: Return pKi measured with human Pim-1 (Homo sapiens (Human)) given this compound: O=C1NCCN(CC(F)(F)C2CCC(CO)CC2)c2c1oc1ccc(C(F)(F)F)cc21 (stereo not shown)
Response: 10.82

Request: Request - read-out pKi | tested on human Pim-1 (Homo sapiens (Human)) | compound C[C@H]1CO[C@H](CCN2CCNC(=O)c3oc4ccc(C(F)(F)F)cc4c32)CO1
Response: 9.34

Request: Find the measured pKi: item O=C1NCCN(CCC2CC3(COC3)C2)c2c1oc1ccc(C(F)(F)F)cc21 , target or system human Pim-1 (Homo sapiens (Human)).
Response: 8.69

---

system_under_test: human Pim-1 (Homo sapiens (Human), UniProt P11309)
Sequence (P11309 whole entry): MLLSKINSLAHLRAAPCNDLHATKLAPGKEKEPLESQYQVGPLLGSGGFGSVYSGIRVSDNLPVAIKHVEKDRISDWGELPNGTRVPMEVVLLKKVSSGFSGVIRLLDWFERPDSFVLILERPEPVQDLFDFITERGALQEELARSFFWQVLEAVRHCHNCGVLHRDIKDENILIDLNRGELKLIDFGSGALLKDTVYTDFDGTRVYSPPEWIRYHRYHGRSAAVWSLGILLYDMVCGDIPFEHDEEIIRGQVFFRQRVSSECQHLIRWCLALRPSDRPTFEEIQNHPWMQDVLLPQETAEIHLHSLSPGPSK
assay_comment: biochemical
Type: biochemical
condition_info: Ki converted from IC50; purified human Pim-1, Pim2tide substrate, ADP-Glo; read-out: hPim1 Ki
// assign Fulfilled if Ki falls strictly below 0.7 nM, else Not fulfilled (ties count as Not fulfilled)

Request: Given the entry O=C1CCC(CCN2CCNC(=O)c3oc4ccc(C(F)(F)F)cc4c32)CC1 , would its reported Ki be below 0.7 nM?
Response: Not fulfilled

Request: Dear reviewer, please state whether CC1(O)CCC(CCN2CC3(CC3)NC(=O)c3oc4ccc(C(F)(F)F)cc4c32)CC1 (single isomer, unassigned) [Example 127] has Ki strictly beneath 0.7 nM.
Response: Fulfilled

Request: Quick check: does O=C1NC2(CC2)CN(CC[C@@H]2CO[C@H](CF)CO2)c2c1oc1ccc(C(F)(F)F)cc21 have Ki under 0.7 nM?
Response: Fulfilled

Request: Ki under 0.7 nM? Item: O=C1NCCN(CCC2COCC(CO)O2)c2c1oc1ccc(C(F)(F)F)cc21 (racemic) [Example 133]
Response: Not fulfilled

Request: Is Ki strictly under 0.7 nM for the entry O=C1NCCN(CC(F)(F)C2CC(O)C2)c2c1oc1ccc(C(F)(F)F)cc21 (stereo not drawn) ?
Response: Not fulfilled

Request: Item C[C@H]1CO[C@@H](CCN2CCNC(=O)c3oc4ccc(C(F)(F)F)cc4c32)CO1 : Ki beneath 0.7 nM, strictly?
Response: Not fulfilled

Request: Threshold test, Ki < 0.7 nM: O=C1NCCN(CC(F)(F)C2COCCO2)c2c1oc1ccc(C(F)(F)F)cc21 (single isomer, unassigned) [Example 68]
Response: Fulfilled

Request: Ki strictly < 0.7 nM for this compound? O=C1NCCN(CCC2CCC(O)(C(F)(F)CO)CC2)c2c1oc1ccc(C(F)(F)F)cc21 (single isomer, unassigned) [Example 119]
Response: Fulfilled

Request: Does O=C1NC2(CC2)CN(CCC2CCC(O)CC2)c2c1oc1ccc(C(F)(F)F)cc21 (stereo not drawn) have Ki strictly under 0.7 nM?
Response: Fulfilled

Request: Ki under 0.7 nM? Item: O=C1NCCN(CC(F)(F)C2CC3(CCO2)COC3)c2c1oc1ccc(C(F)(F)F)cc21 (racemic)
Response: Fulfilled

Request: Dear colleague, could you confirm whether Ki of O=C1NCCN(CC[C@H]2CC[C@](O)(CO)CC2)c2c1oc1ccc(C(F)(F)F)cc21 falls below 0.7 nM? Thanks.
Response: Fulfilled

Request: Identify whether the compound O=C1NCCN(CCC2COCCO2)c2c1oc1c(F)cc(C(F)(F)F)cc21 (racemic) records Ki below 0.7 nM.
Response: Fulfilled

Request: Determine if N#CC[C@H]1CO[C@H](CCN2CCNC(=O)c3oc4ccc(C(F)(F)F)cc4c32)CO1 (racemic) shows Ki strictly lower than 0.7 nM.
Response: Not fulfilled

---

system_under_test: human Pim-1 (Homo sapiens (Human))
assay_comment: biochemical
Assay type: biochemical
condition_info: Ki converted from IC50; purified human Pim-1, Pim2tide substrate, ADP-Glo; read-out: hPim1 Ki
pKi: −log10 of the molar value.
Grouping by measured pKi is done with the following cut points: low: < 9; medium: ≥ 9 and < 10; high: ≥ 10

Request: Band assignment needed for CC1(O)CCC(CCN2CC3(CC3)NC(=O)c3oc4ccc(C(F)(F)F)cc4c32)CC1 (single isomer, unassigned) [Example 128] please.
Response: high

Request: Quick check: band for O=C1NCCN(CCC2CC(O)(CO)CCO2)c2c1oc1ccc(C(F)(F)F)cc21 (stereo not shown) [Example 4]
Response: medium

Request: Each compound maps to one class by pKi. Which class for N#CCC1COCC(CCN2CCNC(=O)c3oc4ccc(C(F)(F)F)cc4c32)O1 (racemic) [Example 140] ?
Response: low

Request: Determine which band this compound sits in: CC(C)(O)C1CCOC(C(F)(F)CN2CCNC(=O)c3oc4ccc(C(F)(F)F)cc4c32)C1 (stereo not shown) [Example 49]
Response: high

Request: The entry to classify is N#CC1(CCO)CCOC(CCN2CCNC(=O)c3oc4ccc(C(F)(F)F)cc4c32)C1 (racemic) [Example 7] ; which class holds it?
Response: medium

Request: Tag the class for O=C1OC[C@]2(CC[C@H](CCN3CCNC(=O)c4oc5ccc(C(F)(F)F)cc5c43)CC2)O1 [Example 2-02]
Response: medium
